The reported numbers originate from ChEMBL document CHEMBL4725382.

# Tested on: Mycobacterium tuberculosis
# measurementProtocol: Antimycobacterial activity against Mycobacterium tuberculosis H37Rv
# Format: functional
Field: MIC. Provide a value for each of the molecules that follow.
One number for each entry, in µM.

chemicalStructure	MIC (µM)
CCCCCCCCCCOC(=O)C1=CCN(C)[C@@H]([C@H](O[C@@H]2O[C@H](CN)[C@@H](O)[C@H]2O)[C@H]2O[C@@H](n3ccc(=O)[nH]c3=O)[C@H](O)[C@@H]2O)C(=O)N1C	8.45
CCCCCCCCCCCNC(=O)C1=CCN(C)[C@@H]([C@H](O[C@@H]2O[C@H](CN)[C@@H](O)[C@H]2O)[C@H]2O[C@@H](n3ccc(=O)[nH]c3=O)[C@H](O)[C@@H]2O)C(=O)N1C	0.98
CCCCCCCCCCCCCCCCCCNC(=O)C1=CCN(C)[C@@H]([C@H](O[C@@H]2O[C@H](CN)[C@@H](O)[C@H]2O)[C@H]2O[C@@H](n3ccc(=O)[nH]c3=O)[C@H](O)[C@@H]2O)C(=O)N1C	0.98

Dear reader, for each entry below, please note its MIC.
1. CCCCCCNC(=O)C1=CCN(C)[C@@H]([C@H](O[C@@H]2O[C@H](CN)[C@@H](O)[C@H]2O)[C@H]2O[C@@H](n3ccc(=O)[nH]c3=O)[C@H](O)[C@@H]2O)C(=O)N1C
2. CCCCCCCc1ccc(NC(=O)C2=CCN(C)[C@@H]([C@H](O[C@@H]3O[C@H](CN)[C@@H](O)[C@H]3O)[C@H]3O[C@@H](n4ccc(=O)[nH]c4=O)[C@H](O)[C@@H]3O)C(=O)N2C)cc1

## Result
[0.98, 1.09]

###

Field: MIC. Provide a value for each of the compounds that follow.
# Tested on: Mycobacterium tuberculosis
# measurementProtocol: Antimycobacterial activity against Mycobacterium tuberculosis H37Rv
# Assay type: functional
Answers are plain numbers, in µM.

These solved cases illustrate the format of a correct answer.
chemicalStructure	MIC, µM
CCCCCCCC/C=C\CCCCCCCCNC(=O)C1=CCN(C)[C@@H]([C@H](O[C@@H]2O[C@H](CN)[C@@H](O)[C@H]2O)[C@H]2O[C@@H](n3ccc(=O)[nH]c3=O)[C@H](O)[C@@H]2O)C(=O)N1C	3.88
CCCCCCCCCCCCCOC(=O)C1=CCN(C)[C@@H]([C@H](O[C@@H]2O[C@H](CN)[C@@H](O)[C@H]2O)[C@H]2O[C@@H](n3ccc(=O)[nH]c3=O)[C@H](O)[C@@H]2O)C(=O)N1C	8.45
CCCCCCCOc1ccc(NC(=O)C2=CCN(C)[C@@H]([C@H](O[C@@H]3O[C@H](CN)[C@@H](O)[C@H]3O)[C@H]3O[C@@H](n4ccc(=O)[nH]c4=O)[C@H](O)[C@@H]3O)C(=O)N2C)cc1	0.98

With those in mind, consider the next compound.
`CCCCCCCCCCCCCCCCNC(=O)C1=CCN(C)[C@@H]([C@H](O[C@@H]2O[C@H](CN)[C@@H](O)[C@H]2O)[C@H]2O[C@@H](n3ccc(=O)[nH]c3=O)[C@H](O)[C@@H]2O)C(=O)N1C` has a reported MIC of 0.98

###

# System: Mycobacterium tuberculosis
# measurementProtocol: Antimycobacterial activity against Mycobacterium tuberculosis H37Rv
# Type: functional
endpointName: MIC (µM)
Numbers only, in µM.

chemicalStructure	MIC [µM]
CCCCCCCCCCCCCCCCCCCCNC(=O)C1=CCN(C)[C@@H]([C@H](O[C@@H]2O[C@H](CN)[C@@H](O)[C@H]2O)[C@H]2O[C@@H](n3ccc(=O)[nH]c3=O)[C@H](O)[C@@H]2O)C(=O)N1C	0.98

Dear reader, for each entry below, please note its MIC.
1. CCCCCCCNC(=O)C1=CCN(C)[C@@H]([C@H](O[C@@H]2O[C@H](CN)[C@@H](O)[C@H]2O)[C@H]2O[C@@H](n3ccc(=O)[nH]c3=O)[C@H](O)[C@@H]2O)C(=O)N1C
2. CCCCCCCCCCCCCCCNC(=O)C1=CCN(C)[C@@H]([C@H](O[C@@H]2O[C@H](CN)[C@@H](O)[C@H]2O)[C@H]2O[C@@H](n3ccc(=O)[nH]c3=O)[C@H](O)[C@@H]2O)C(=O)N1C

## Result
[0.98, 0.98]

###

# System: Mycobacterium tuberculosis
# measurementProtocol: Antimycobacterial activity against Mycobacterium tuberculosis H37Rv
# Type: functional
endpointName: MIC

These solved cases illustrate the format of a correct answer.
chemicalStructure	MIC
C=CCCCCCCCCCOC(=O)C1=CCN(C)[C@@H]([C@H](O[C@@H]2O[C@H](CN)[C@@H](O)[C@H]2O)[C@H]2O[C@@H](n3ccc(=O)[nH]c3=O)[C@H](O)[C@@H]2O)C(=O)N1C	17.6 µM
CCCCCCCCCNC(=O)C1=CCN(C)[C@@H]([C@H](O[C@@H]2O[C@H](CN)[C@@H](O)[C@H]2O)[C@H]2O[C@@H](n3ccc(=O)[nH]c3=O)[C@H](O)[C@@H]2O)C(=O)N1C	0.98 µM
CCCCCCCCCCCCCCNC(=O)C1=CCN(C)[C@@H]([C@H](O[C@@H]2O[C@H](CN)[C@@H](O)[C@H]2O)[C@H]2O[C@@H](n3ccc(=O)[nH]c3=O)[C@H](O)[C@@H]2O)C(=O)N1C	0.98 µM
CCCCc1ccc(N)cc1	2.27 µM

`CCCCCCCCCCCCCCCCCCOC(=O)C1=CCN(C)[C@@H]([C@H](O[C@@H]2O[C@H](CN)[C@@H](O)[C@H]2O)[C@H]2O[C@@H](n3ccc(=O)[nH]c3=O)[C@H](O)[C@@H]2O)C(=O)N1C` has a reported MIC of 8.45 µM

###

Field: MIC. Provide a value for each of the compounds that follow.
# Test system: Mycobacterium tuberculosis
# measurementProtocol: Antimycobacterial activity against Mycobacterium tuberculosis H37Rv
# Type: functional
Give bare numbers, in µM.

These solved cases illustrate the format of a correct answer.
chemicalStructure	MIC [µM]
CCCCCCCCCCCCCNC(=O)C1=CCN(C)[C@@H]([C@H](O[C@@H]2O[C@H](CN)[C@@H](O)[C@H]2O)[C@H]2O[C@@H](n3ccc(=O)[nH]c3=O)[C@H](O)[C@@H]2O)C(=O)N1C	0.98
CCCCCCCCCCCCCCCCCNC(=O)C1=CCN(C)[C@@H]([C@H](O[C@@H]2O[C@H](CN)[C@@H](O)[C@H]2O)[C@H]2O[C@@H](n3ccc(=O)[nH]c3=O)[C@H](O)[C@@H]2O)C(=O)N1C	0.98
CCCCOc1ccc(NC(=O)C2=CCN(C)[C@@H]([C@H](O[C@@H]3O[C@H](CN)[C@@H](O)[C@H]3O)[C@H]3O[C@@H](n4ccc(=O)[nH]c4=O)[C@H](O)[C@@H]3O)C(=O)N2C)cc1	1.04
Nc1ccc(C2CCCCC2)cc1	2.27
CCCCCCCCCCCCCCCCCCCNC(=O)C1=CCN(C)[C@@H]([C@H](O[C@@H]2O[C@H](CN)[C@@H](O)[C@H]2O)[C@H]2O[C@@H](n3ccc(=O)[nH]c3=O)[C@H](O)[C@@H]2O)C(=O)N1C	0.98
CN1C(=O)[C@H]([C@H](O[C@@H]2O[C@H](CN)[C@@H](O)[C@H]2O)[C@H]2O[C@@H](n3ccc(=O)[nH]c3=O)[C@H](O)[C@@H]2O)N(C)CC=C1C(=O)NC1CCCCCCCCCCC1	2.16
CN1C(=O)[C@H]([C@H](O[C@@H]2O[C@H](CN)[C@@H](O)[C@H]2O)[C@H]2O[C@@H](n3ccc(=O)[nH]c3=O)[C@H](O)[C@@H]2O)N(C)CC=C1C(=O)Nc1ccc(C2CCCCC2)cc1	2.18
CCCCc1ccc(NC(=O)C2=CCN(C)[C@@H]([C@H](O[C@@H]3O[C@H](CN)[C@@H](O)[C@H]3O)[C@H]3O[C@@H](n4ccc(=O)[nH]c4=O)[C@H](O)[C@@H]3O)C(=O)N2C)cc1	1.09

Form field MIC for item `CCCCCCCCCCCCc1ccc(NC(=O)C2=CCN(C)[C@@H]([C@H](O[C@@H]3O[C@H](CN)[C@@H](O)[C@H]3O)[C@H]3O[C@@H](n4ccc(=O)[nH]c4=O)[C@H](O)[C@@H]3O)C(=O)N2C)cc1` on Mycobacterium tuberculosis: 1.09
